Catalogue of PBM binding z-score readings, one per entry.
# Test system: PPARg DBDmut IVT, anti-PPARg (DBD mutation: PPARg1 K132A/R137A, NR concentration 270 nM)
# ASSAY DETAILS: PBM binding z-score (relative to random genomic background probes); higher = stronger binding; sequences stand for … in GC…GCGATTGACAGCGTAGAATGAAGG
PROPERTY NAME: PBM binding z-score

1) CCTAGTAGGTTATGGGGCATTCAGGCAACGGTGA
-0.728
2) CGAACTAGGTCAAAGGACAGTGCAAGGCGACGTA
-0.34
3) CGAACTAGGTCACCAGGACAGCGAAGAGGTTGGA
0.871
4) CGAACTAGGTCAGAACAGGACATTGAAGGATGAT
2.2
5) CGAACTAGGTCTCCAGGACAGTGAAGAGGTTGGA
-0.626
6) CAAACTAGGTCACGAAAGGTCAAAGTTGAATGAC
2
7) CGAACTAGGTCACCAGGACAGAGAAGAGGTTGGA
0.828
8) ATATGTAGGTTAGCGTCATTCAGAAAGTAGGGAA
1.38
9) TCTAGTTGGTGACGGAGGTCACACACGACGGGTA
0.756
10) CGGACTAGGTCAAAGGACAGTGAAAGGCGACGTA
0.294
11) CTCGAAAGGGCGTGCTCAGGTGAGTATACCAAAC
-0.0248
12) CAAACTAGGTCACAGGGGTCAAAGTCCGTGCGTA
3.18

* * *

# System: PPARg homodimer (NR concentration 180 nM)
# ASSAY DETAILS: PBM binding z-score (relative to random genomic background probes); higher = stronger binding; sequences stand for … in GC…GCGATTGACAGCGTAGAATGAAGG
PROPERTY NAME: PBM binding z-score

1. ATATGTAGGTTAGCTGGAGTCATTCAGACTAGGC
0.988
2. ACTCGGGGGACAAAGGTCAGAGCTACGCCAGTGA
5.43
3. TCTGCTAGGTCAGGTGGTCAGCTAACGAGCTGCC
-0.444
4. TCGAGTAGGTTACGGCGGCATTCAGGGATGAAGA
-0.171
5. CCGACGGGGGCAGAAAGGTTACCATACCATCCGG
2.43
6. CGTCCAAGGTCAGAGAGGTCAGTGTATGCCGAGT
3.62
7. TCTTGTAGATCAAAGCTTAAGAAAGCCGAAGCCT
-0.405
8. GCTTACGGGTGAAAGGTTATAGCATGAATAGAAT
1.72
9. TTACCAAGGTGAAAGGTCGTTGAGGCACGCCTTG
2.82
10. CCTCGGAGGACAACCGGAGGTCAGAGCTGCCAGA
1.17
11. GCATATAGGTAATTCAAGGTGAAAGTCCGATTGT
0.811
12. ATATGTAGGTTAGTGTCATTCAGAAAGTAGGGAA
1.86

* * *

# System: RARb homodimer (NR concentration 270 nM)
# ASSAY DETAILS: PBM binding z-score (relative to random genomic background probes); higher = stronger binding; sequences stand for … in GC…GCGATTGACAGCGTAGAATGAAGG
Catalogue of PBM binding z-score readings, one per entry.
PROPERTY NAME: PBM binding z-score

1) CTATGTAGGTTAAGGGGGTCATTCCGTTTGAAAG
3.76
2) CTAACTAGGTCAAGGTCAAAGTCGGTTTGTGCCA
5.03
3) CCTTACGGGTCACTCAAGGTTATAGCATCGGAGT
3.55
4) CCTAGTTGGTCAGGGGGTCACACACCGGATATGA
4.05
5) ATATGTAGGTCAGGGTCATTCAGAAAGTAGGGAA
4.5
6) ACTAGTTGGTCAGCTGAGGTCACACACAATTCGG
4.52
7) CTATGTAGGTTAAGGGGCTCATTCAGTTTGAAAG
0.464
8) GATACAAGGTCAGCTAGAGGCCAGAGTATGGAAA
3.93
9) TCGAGTAGGTTATGGGGGCATTCAGGGATGAAGA
2.17
10) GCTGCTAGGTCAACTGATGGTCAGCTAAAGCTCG
3.57
11) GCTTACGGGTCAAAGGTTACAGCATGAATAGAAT
3.57
12) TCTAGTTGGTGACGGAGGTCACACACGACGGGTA
3.88
